# Tested on: HeLa
# assay-explanation: cell viability (CellTiter-Glo) relative to median of lowest-dilution wells of all drugs (fraction); higher = more viable cells
# condition-context: drug concentration (unit not stated): 0.37; genotype: DDX11 knockout
Field: cell viability. Provide a value for each of the molecules that follow.
Answers are plain numbers.

Solved cases below.
// recorded cell viability for CC[C@H](CO)Nc1nc(NCc2ccccc2)c2ncn(C(C)C)c2n1 [Seliciclib (Roscovitine)] : 1.01

cell viability for C[C@@H]1COCCN1c1cc(-c2ccnn2C)c2ccnc(-c3ccn[nH]3)c2n1 is 0.864

Short answer for CCc1cnn2c(NCc3ccc[n+]([O-])c3)cc(N3CCCC[C@H]3CCO)nc12 : cell viability was 0.171

Reported cell viability of O=C(O)C1(C(=O)O)CCC1.[NH2-].[NH2-].[Pt+2] : 0.909

Next:
Form: molecule = O=c1cc(-c2cccc3c2Sc2ccccc2S3)oc(N2CCOCC2)c1 ; cell viability = 1.03

###

# System: HeLa
# assay-explanation: cell viability (CellTiter-Glo) relative to median of lowest-dilution wells of all drugs (fraction); higher = more viable cells
# condition-context: drug concentration (unit not stated): 3.33; genotype: control (DDX11 wild type)
Counter-ions that a name gives are not always drawn.
Threshold 1. cell viability below it: MET. cell viability at it or above: NOT MET.

Record excerpt, results attached:
Q: Is cell viability strictly under 1 for the entry C[C@@H]1COCCN1c1cc(-c2ccnn2C)c2ccnc(-c3ccn[nH]3)c2n1 ?
Result: MET

Q: Strictly below 1 in cell viability? CN1CC[C@H](c2c(O)cc(O)c3c(=O)cc(-c4ccccc4Cl)oc23)[C@H](O)C1
Result: MET

Q: Does this compound meet the criterion cell viability < 1? COc1cc(Nc2ncc3c(n2)-c2ccc(Cl)cc2C(c2c(F)cccc2OC)=NC3)ccc1C(=O)O
Result: MET

Q: Determine if CC[C@]1(O)C[C@@H]2CN(CCc3c([nH]c4ccccc34)[C@@](C(=O)OC)(c3cc4c(cc3OC)N(C)[C@H]3[C@@](O)(C(=O)OC)[C@H](OC(C)=O)[C@]5(CC)C=CCN6CC[C@]43[C@@H]65)C2)C1 shows cell viability strictly lower than 1.
Result: MET

Q: # check: cell viability < 1 for COc1cccc2c1C(=O)c1c(O)c3c(c(O)c1C2=O)C[C@@](O)(C(=O)CO)C[C@@H]3O[C@H]1C[C@H](N)[C@H](O)[C@H](C)O1
Result: MET

Q: API: query returns whether the compound falls strictly under 1 in cell viability. Query: COc1cccc2c1C(=O)c1c(O)c3c(c(O)c1C2=O)C[C@@](O)(C(=O)CO)C[C@@H]3O[C@H]1C[C@H](N)[C@@H](O)[C@H](C)O1 [Epirubicin Hydrochloride]
Result: MET

Q: # strict comparison: is reported cell viability < 1? input = CO[C@@H](C(=O)N1Cc2[nH]nc(NC(=O)c3ccc(N4CCN(C)CC4)cc3)c2C1)c1ccccc1
Result: MET

Q: Lab note: confirm whether the reported cell viability for this compound is below 1, equality not counting. compound: Nc1ncn([C@@H]2O[C@H](CO)[C@@H](O)[C@H]2O)c(=O)n1
Result: NOT MET

Q: Is it true that cell viability reported for O=c1[nH]c(=O)n(C2CCCO2)cc1F (configuration not stated) is less than 1?
Result: NOT MET

With those in mind, consider the next compound.
Q: Dear colleague, could you confirm whether cell viability of O=C(O)CCCc1ccc(N(CCCl)CCCl)cc1 falls below 1? Thanks.
Result: NOT MET

The reported measurements were obtained from the supplement of paper PMC8092582.
